Tested on: A549
Protocol summary: Solid tumor cell growth inhibition, MTT, 72 h
Format: cell-based
Experimental context: Homo sapiens
Assay readout: IC90

>>> value_measured("C=C1C(=O)[C@]23[C@H](OC(=O)C4CCN(S(=O)(=O)c5ccccc5)CC4)[C@H]1CC[C@H]2[C@@]12CO[C@@]3(O)[C@@H](O)[C@@H]1C(C)(C)CCC2=O")
"9.98 µg/mL"
>>> value_measured("C=C1C(=O)[C@]23[C@H](O)[C@H]1CC[C@H]2[C@@]12CO[C@]3(O)[C@@H](O)[C@@H]1C(C)(C)CC[C@@H]2O")
"> 16 µg/mL"
>>> value_measured("C=C1C(=O)[C@]23[C@H](OC(=O)c4ccc(C)cc4)[C@H]1CC[C@H]2[C@@]12CO[C@@]3(O)[C@@H](O)[C@@H]1C(C)(C)CCC2OC(C)=O (some centres unmarked)")
"6.27 µg/mL"
>>> value_measured("C=C1C(=O)[C@]23[C@H](OC(=O)c4ccc(Cl)cc4)[C@H]1CC[C@H]2[C@@]12CO[C@@]3(O)[C@@H](O)[C@@H]1C(C)(C)CCC2=O")
"7.29 µg/mL"

GET /value?item= C=C1C(=O)[C@]23[C@H](OC(=O)c4ccc(Cl)cc4)[C@H]1CC[C@H]2[C@@]12CO[C@@]3(O)[C@@H](O)[C@@H]1C(C)(C)CC[C@@H]2OC(C)=O &field=IC90 returns 6.68 µg/mL

====

System: MG-63
Protocol summary: Solid tumor cell growth inhibition, MTT, 72 h
Assay type: cell-based
Experimental context: Homo sapiens
Assay readout: IC90 (µg/mL)
The answer is to be given in µg/mL; state only the numeric part.

Worked examples, 2 molecules total:
>>> value_measured("C=C1C(=O)[C@]23[C@H](OC(=O)c4ccc(OC)c(OC)c4)[C@H]1CC[C@H]2[C@@]12CO[C@@]3(O)[C@@H](O)[C@@H]1C(C)(C)CCC2=O [BS-OR-015]")
0.96
>>> value_measured("C=C1C(=O)[C@]23[C@H](OC(=O)c4ccccc4Cl)[C@H]1CC[C@H]2[C@@]12CO[C@@]3(O)[C@@H](O)[C@@H]1C(C)(C)CCC2=O [BS-OR-003]")
2.74

Please examine the following record next.
IC90 reading for C=C1C(=O)[C@]23[C@H](OC(=O)c4ccc(C)cc4)[C@H]1CC[C@H]2[C@@]12CO[C@@]3(O)[C@@H](O)[C@@H]1C(C)(C)CCC2=O [BS-OR-004] : 0.87

====

Below, each entry is listed with its recorded IC50.
Tested on: RPMI 8226
Protocol summary: Multiple myeloma cell growth inhibition, MTT, 72 h
Assay type: cell-based
Experimental context: Homo sapiens
Just the number in µg/mL, nothing appended.

>>> value_measured("C=C1C(=O)[C@]23[C@H](OC(=O)c4ccccc4Br)[C@H]1CC[C@H]2[C@@]12CO[C@@]3(O)[C@@H](O)[C@@H]1C(C)(C)CCC2=O")
0.59

Kindly note the recorded IC50 for C=C1C(=O)[C@]23[C@H](OC(=O)/C=C/c4ccccc4)[C@H]1CC[C@H]2[C@@]12CO[C@@]3(O)[C@@H](O)[C@@H]1C(C)(C)CC[C@@H]2OC(C)=O , which is 0.49

Entry under test: C=C1C(=O)[C@]23[C@H](OC(=O)C4CCN(S(=O)(=O)c5ccccc5[N+](=O)[O-])CC4)[C@H]1CC[C@H]2[C@@]12CO[C@@]3(O)[C@@H](O)[C@@H]1C(C)(C)CCC2=O . Its IC50 was 1.48

Documented IC50 of C=C1C(=O)[C@]23[C@H](OC(=O)c4cccs4)[C@H]1CC[C@H]2[C@@]12CO[C@@]3(O)[C@@H](O)[C@@H]1C(C)(C)CCC2=O : 0.37

Reported IC50 of C=C1C(=O)[C@]23[C@H](OC(=O)c4ccc(OC)cc4)[C@H]1CC[C@H]2[C@@]12CO[C@@]3(O)[C@@H](O)[C@@H]1C(C)(C)CCC2OC(C)=O (some centres unmarked) : 0.37

====

System: CaEs-17
Protocol summary: Solid tumor cell growth inhibition, MTT, 72 h
Assay type: cell-based
Experimental context: Homo sapiens, CaEs17
Assay readout: IC50 (µg/mL)
Reply with just the number (in µg/mL).

Worked set:
>>> value_measured("C=C1C(=O)[C@]23[C@H](OC(=O)C4CCN(S(=O)(=O)c5ccccc5)CC4)[C@H]1CC[C@H]2[C@@]12CO[C@@]3(O)[C@@H](O)[C@@H]1C(C)(C)CCC2=O")
1.62
>>> value_measured("C=C1C(=O)[C@]23[C@H](OC(=O)c4ccccc4)[C@H]1CC[C@H]2[C@@]12CO[C@@]3(O)[C@@H](O)[C@@H]1C(C)(C)CCC2=O")
1.21
>>> value_measured("C=C1C(=O)[C@]23[C@H](OC(=O)c4cccs4)[C@H]1CC[C@H]2[C@@]12CO[C@@]3(O)[C@@H](O)[C@@H]1C(C)(C)CCC2=O")
0.93
>>> value_measured("C=C1C(=O)[C@]23[C@H](OC(=O)C4CCN(S(=O)(=O)c5cccc([N+](=O)[O-])c5)CC4)[C@H]1CC[C@H]2[C@@]12CO[C@@]3(O)[C@@H](O)[C@@H]1C(C)(C)CCC2=O")
3.07
>>> value_measured("C=C1C(=O)[C@]23[C@H](OC(=O)c4ccccc4Cl)[C@H]1CC[C@H]2[C@@]12CO[C@@]3(O)[C@@H](O)[C@@H]1C(C)(C)CCC2=O")
1.49

Per the record, C=C1C(=O)[C@]23[C@H](OC(=O)c4ccc(C)cc4)[C@H]1CC[C@H]2[C@@]12CO[C@@]3(O)[C@@H](O)[C@@H]1C(C)(C)CCC2OC(C)=O (stereo partly shown) has IC50 of 0.9

Note to self: IC50 recorded for C=C1C(=O)[C@]23[C@H](OC(=O)c4ccc(Cl)cc4)[C@H]1CC[C@H]2[C@@]12CO[C@@]3(O)[C@@H](O)[C@@H]1C(C)(C)CC[C@@H]2OC(C)=O was 0.86

IC50 recorded for this compound, C=C1C(=O)[C@]23[C@H](OC(=O)C4CCC(NC(=O)c5ccccn5)CC4)[C@H]1CC[C@H]2[C@@]12CO[C@@]3(O)[C@@H](O)[C@@H]1C(C)(C)CCC2=O (stereo partly shown) , is 1.71

Memo: C=C1C(=O)[C@]23[C@H](OC(=O)C4CCN(S(=O)(=O)c5ccccc5[N+](=O)[O-])CC4)[C@H]1CC[C@H]2[C@@]12CO[C@@]3(O)[C@@H](O)[C@@H]1C(C)(C)CCC2=O , reported IC50: 3.48

Record C=C1C(=O)[C@]23[C@H](OC(=O)c4ccc(OC)cc4)[C@H]1CC[C@H]2[C@@]12CO[C@@]3(O)[C@@H](O)[C@@H]1C(C)(C)CCC2=O , field IC50: 0.81

====

Tested on: A549
Protocol summary: Solid tumor cell growth inhibition, MTT, 72 h
Format: cell-based
Experimental context: Homo sapiens
Decide using IC50 alone. Strictly below 2 µg/mL: Y. Equal to or above 2 µg/mL: N.

Some solved cases for reference:
>>> class("C=C1C(=O)[C@]23[C@H](OC(=O)c4ccc(OC)cc4)[C@H]1CC[C@H]2[C@@]12CO[C@@]3(O)[C@@H](O)[C@@H]1C(C)(C)CCC2=O")
"Y"
>>> class("C=C1C(=O)[C@]23[C@H](OC(=O)C4CCN(S(=O)(=O)c5cccc([N+](=O)[O-])c5)CC4)[C@H]1CC[C@H]2[C@@]12CO[C@@]3(O)[C@@H](O)[C@@H]1C(C)(C)CCC2=O")
"N"
>>> class("C=C1C(=O)[C@]23[C@H](OC(=O)c4cccc(C)c4)[C@H]1CC[C@H]2[C@@]12CO[C@@]3(O)[C@@H](O)[C@@H]1C(C)(C)CCC2=O")
"N"
>>> class("C=C1C(=O)[C@]23[C@H](OC(=O)c4ccc(C)cc4)[C@H]1CC[C@H]2[C@@]12CO[C@@]3(O)[C@@H](O)[C@@H]1C(C)(C)CCC2=O")
"Y"

Hi there! Is IC50 for C=C1C(=O)[C@]23[C@H](OC(=O)C4CCN(S(=O)(=O)CC)CC4)[C@H]1CC[C@H]2[C@@]12CO[C@@]3(O)[C@@H](O)[C@@H]1C(C)(C)CCC2=O below 2 µg/mL, do you know?
N

For C=C1C(=O)[C@]23[C@H](OC(=O)c4ccc(C)cc4)[C@H]1CC[C@H]2[C@@]12CO[C@@]3(O)[C@@H](O)[C@@H]1C(C)(C)CCC2OC(C)=O (stereo partly drawn) , is the recorded IC50 below the cut-off of 2 µg/mL?
Y

====

System: Hela
Protocol summary: Solid tumor cell growth inhibition, MTT, 72 h
Format: cell-based, human
Experimental context: Homo sapiens, HeLa; 72 h, MTT
Each item that follows carries a reported IC50.
Output should be the measured figure followed by the unit it is expressed in.

>>> value_measured("C=C1C(=O)[C@]23[C@H](OC(=O)C4CCN(S(=O)(=O)c5ccccc5[N+](=O)[O-])CC4)[C@H]1CC[C@H]2[C@@]12CO[C@@]3(O)[C@@H](O)[C@@H]1C(C)(C)CCC2=O [BS-OR-034]")
"2.98 µg/mL"

get_value(item= C=C1C(=O)[C@]23[C@H](OC(=O)/C=C/c4ccccc4)[C@H]1CC[C@H]2[C@@]12CO[C@@]3(O)[C@@H](O)[C@@H]1C(C)(C)CCC2=O [BS-OR-019] , readout=IC50) returns 1.43 µg/mL

Per the record, C=C1C(=O)[C@]23[C@H](OC(=O)c4ccc(OC)c(OC)c4)[C@H]1CC[C@H]2[C@@]12CO[C@@]3(O)[C@@H](O)[C@@H]1C(C)(C)CCC2=O [BS-OR-015] has IC50 of 1.53 µg/mL
